Entry source: the RNAGym collection of RNA variant scans (doi:10.7554/elife.80360)

Hi there, I'd appreciate the recorded self-cleavage for every entry that follows.
B1: Twister Ribozyme (parent)
chain: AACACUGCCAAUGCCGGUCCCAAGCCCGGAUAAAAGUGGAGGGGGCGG

Variants of: B1
PROTOCOL_DESCRIPTION: self-cleavage, relative activity (ratio to wild type); higher = more cleavage; co-transcriptional
Kindly provide the number alone.

*Q* Entry A2U A35C has what self-cleavage?
*A* 0.745

*Q* Entry C14U G45U has what self-cleavage?
*A* 0.964

*Q* Entry C20U A33C has what self-cleavage?
*A* 0.894

*Q* Entry C27A U37C has what self-cleavage?
*A* 0.136

*Q* Entry A23U G28C has what self-cleavage?
*A* 0.249

*Q* Entry A10U C19A has what self-cleavage?
*A* 0.331

*Q* Entry C21G G44C has what self-cleavage?
*A* 0.0843

*Q* Entry A32C G39U has what self-cleavage?
*A* 0.235

*Q* Entry A34U U37A has what self-cleavage?
*A* 0.368

*Q* Entry G29A G36C has what self-cleavage?
*A* 0.246

*Q* Entry C15A C21A has what self-cleavage?
*A* 0.133

*Q* Entry A22U G39A has what self-cleavage?
*A* 0.099

*Q* Entry G17C A35G has what self-cleavage?
*A* 0.0629

*Q* Entry A1C A10G has what self-cleavage?
*A* 0.133

*Q* Entry G13A A22U has what self-cleavage?
*A* 0.424

*Q* Entry C15A C20A has what self-cleavage?
*A* 0.0707

*Q* Entry G41C G45C has what self-cleavage?
*A* 0.253

*Q* Entry C8A A23G has what self-cleavage?
*A* 0.0496

*Q* Entry C9G U37A has what self-cleavage?
*A* 0.208

*Q* Entry U6A U31A has what self-cleavage?
*A* 0.717

*Q* Entry G7C G39A has what self-cleavage?
*A* 0.0735

*Q* Entry C14U A30G has what self-cleavage?
*A* 1.02
